Listed next: entries and their corresponding normalized growth.
test-description: chemical genetic growth profiling, strain panel (AID 1159580);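 also: tested at 20 µM; growth read once vehicle control cultures reached saturation at 30 °C; 1 = growth at the plate median or of vehicle wells; lower values mean less growth of the strain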
stated-conditions: S. cerevisiae deletion strains, growth OD, locus YLR039C, strain RIC1, stronger effect = lower value
Screen size: about 5,500 compounds; about 2,000 (36%) were called active. About 18% were inconclusive and are not listed. The list shows a part of the results.
The response must contain the number and no unit.

1. Oc1ccc(O)cc1; 0.904
2. O=C1C[C@@H](c2ccc(O)cc2)Oc2cc(O)cc(O)c21; 1

Below: the item to evaluate.
stdin: Request the reported normalized growth associated with `COc1ccc(OC)c(C(=O)c2cc(OC)c(OC)c(OC)c2)c1`
stdout: 0.753

These entries and their values trace back to PubChem BioAssay AID1159580.
